Tested on: HOP-62
Assay: NCI tumour cell line growth inhibition, 48 h
Active and inactive are the calls of the source. Rule as the data show it: active = GI50 up to about 1.1 µM and inactive = higher.
Reported GI50 values for a set of molecules
measuredQuantity: GI50

INSERT INTO measurements (testsmiles, recordedmeasurement) VALUES
  ('Cc1cc(N(CCC#N)S(=O)(=O)c2ccccc2)ccc1/C=N/c1ccc(C(=O)O)cc1', '31 µM (inactive)'),
  ('CC(C)=CCC/C(=C/CC/C(=C\CCc1ccoc1)C(=O)O)C(=O)O', '> 100 µM (inactive)'),
  ('CNC1(C(=O)O)CC1', '> 100 µM (inactive)'),
  ('CN(C)c1ccc(NN=C2SC(=N\c3ccccc3)/C(=N/c3ccccc3)S2)cc1', '> 100 µM (inactive)');

----------
Tested on: NCI-H23
Test: NCI tumour cell line growth inhibition, 48 h
Active and inactive are the calls of the source. Cut-off read from the data, not from the text of the source: active = GI50 up to about 1.1 µM and inactive = higher.
measuredQuantity: GI50

INSERT INTO assay_data (compound, systemname, measuredquantity, recordedmeasurement) VALUES
  ('Cc1ccc(S(=O)(=O)N/N=C/c2oc(-c3ccncc3)c(-c3ccncc3)c2[N+](=O)[O-])cc1', 'NCI-H23', 'GI50', '> 100 µM (inactive)'),
  ('C#CC[C@@H]1C(=O)N(Cc2ccc(OC)cc2)[C@@H](C(C)C)C(=O)N1Cc1ccc(OC)cc1', 'NCI-H23', 'GI50', '33.2 µM (inactive)'),
  ('CCC1=C(c2ccc(OC)cc2)CC[C@@]2(CCNC2=O)[C@@H]1C', 'NCI-H23', 'GI50', '> 43.2 µM (inactive)'),
  ('COc1ccc(/C(Br)=C2\OC(=O)c3ccccc32)cc1', 'NCI-H23', 'GI50', '> 10 µM (inactive)'),
  ('S=P1(c2ccccc2)Nc2ccc(Cl)cc2N1 (stereo not drawn)', 'NCI-H23', 'GI50', '> 100 µM (inactive)'),
  ('Cc1ccc(S(=O)(=O)OCOS(=O)(=O)c2ccc(C)cc2)cc1', 'NCI-H23', 'GI50', '> 100 µM (inactive)'),
  ('CC1OC2OC3C(OCC(O)C3O)OC(=O)[C@]34CCC(C)(C)CC3C3=CCC5[C@@]6(C)C[C@H](O)[C@H](OC7OC(CO)C(O)C(O)C7OC7OC(COC(=O)CC(C)(O)CC(=O)OC1C(O)C2O)C(O)C(O)C7O)[C@@](C)(CO)C6CC[C@@]5(C)[C@]3(C)CC4 (stereo partly drawn)', 'NCI-H23', 'GI50', '1.64 µM (inactive)'),
  ('O=C1Sc2sc(=S)sc2SC1c1ccccc1 (stereo not drawn)', 'NCI-H23', 'GI50', '82.6 µM (inactive)');

----------
System: HOP-18
Assay: NCI tumour cell line growth inhibition, 48 h
The source made the active and inactive calls. Rule as the data show it: active = GI50 up to about 1.1 µM and inactive = higher.
Reported GI50 values for a set of compounds
measuredQuantity: GI50

INSERT INTO assay_data (compound, systemname, recordedmeasurement) VALUES
  ('COC(=O)/C(=N\NC(C)(C)C)C(C(=O)OC)C(=O)C(=O)Nc1cc(Cl)ccc1Cl (centres undefined)', 'HOP-18', '> 100 µM (inactive)'),
  ('Cc1ccc(S(=O)(=O)N/N=C/c2oc(-c3ccncc3)c(-c3ccncc3)c2[N+](=O)[O-])cc1', 'HOP-18', '> 100 µM (inactive)'),
  ('c1ccc2c(CN3CCC(C4CCN(Cc5cccc6ccccc56)CC4)CC3)cccc2c1', 'HOP-18', '40.1 µM (inactive)'),
  ('C#C[C@]1(O)CCC2C3CCc4cc(Oc5nc(F)nc(-c6c7cc8ccccc8cc7c7n6CCS7)n5)ccc4C3CCC21C (some centres undefined)', 'HOP-18', '> 100 µM (inactive)'),
  ('O=C1CCC2(c3ccc(Cl)cc3)Nc3cc(Cl)ccc3N12 (centres undefined)', 'HOP-18', '1.25 µM (inactive)'),
  ('O=C(O)CNS(=O)(=O)c1ccc(NC(=O)c2cccc([N+](=O)[O-])c2)cc1', 'HOP-18', '> 100 µM (inactive)'),
  ('C=C(CCCCC)CN1CCCC1[C@@](C)(O)CC(=O)OCC (some centres undefined)', 'HOP-18', '> 100 µM (inactive)'),
  ('O=C(/C=N/c1ccccc1S)c1ccco1', 'HOP-18', '17.7 µM (inactive)'),
  ('O=C1Sc2sc(=S)sc2SC1c1ccccc1 (centres undefined)', 'HOP-18', '48.1 µM (inactive)');

----------
System: UACC-257
Experiment: NCI tumour cell line growth inhibition, 48 h
The source made the active and inactive calls. Rule as the data show it: active = GI50 up to about 1.1 µM and inactive = higher.
measuredQuantity: GI50

INSERT INTO results (compound, systemname, recordedmeasurement) VALUES
  ('CC(=O)N1[C@H](C(=O)O)CS[C@H]1c1ccncc1', 'UACC-257', '> 100 µM (inactive)'),
  ('CCOC(=O)C1=C(NC)OC/C1=N\NC(=O)c1ccccc1O', 'UACC-257', '1.49 µM (inactive)'),
  ('CC(C)=CCC/C(=C/CC/C(=C\CCc1ccoc1)C(=O)O)C(=O)O', 'UACC-257', '> 100 µM (inactive)'),
  ('COc1ccc(OC)c(/N=C/c2cc(OC)c(OC)c(OC)c2)c1', 'UACC-257', '> 100 µM (inactive)'),
  ('Nc1nc(O)c(Br)c(-c2cccc([N+](=O)[O-])c2)n1', 'UACC-257', '> 55 µM (inactive)'),
  ('O=C=C=P(c1ccccc1)(c1ccccc1)c1ccccc1', 'UACC-257', '27.8 µM (inactive)'),
  ('CC(=O)c1ccc2c(c1)C(=O)c1sc(C(C)=O)cc1C2=O', 'UACC-257', '0.859 µM (active)'),
  ('O=C1c2cc3ccccc3cc2C2(c3ccc(Cl)cc3)N[C@H]3CCCC[C@@H]3N12 (stereo partly specified)', 'UACC-257', '19.4 µM (inactive)'),
  ('CC(=O)[O-].[O-]c1c(Cl)cc(Cl)cc1/C=N/Nc1ccccn1.[Zn+2]', 'UACC-257', '0.418 µM (active)'),
  ('CCC(C)C1NC(=O)C2CCCN2C(=O)C(CC2CO2)OC(=O)CCNC(=O)C(C)N(C)C(=O)C(C(C)C)N(C)C1=O (stereo unspecified)', 'UACC-257', '< 0.01 µM (active)'),
  ('O=C(N/N=C\c1ccc([N+](=O)[O-])cc1)Nc1ccc2ccccc2c1', 'UACC-257', '44.3 µM (inactive)');

----------
Tested on: SF-295
Assay: NCI tumour cell line growth inhibition, 48 h
Activity calls are given as the source filed them. No stated cut-off is given here; in the data, active = GI50 up to about 1.1 µM and inactive = higher.
Classes used: active, inactive

INSERT INTO assay_data (compound, classname) VALUES
  ('O=C(CNc1ccccc1C(=O)O)Nn1cnc2ccc(S(=O)(=O)Nc3ccccc3C(=O)O)cc2c1=O', 'inactive'),
  ('C#CC[C@@H]1C(=O)N(Cc2ccc(OC)cc2)[C@@H](C(C)C)C(=O)N1Cc1ccc(OC)cc1', 'inactive'),
  ('N#Cc1c(-c2ccccc2)c(C=O)c(=O)n2c1[nH]c1ccccc12', 'inactive'),
  ('OCCN(CCO)CCn1cnc2c(NCc3ccccc3)ncnc21', 'inactive'),
  ('COc1cc(NCc2ccc3nc(OC)c(OC)nc3c2)cc(OC)c1OC', 'inactive'),
  ('Nc1nc(N)c2nc(CNc3ccc(C(=O)NC(CCNC(=O)c4ccccc4C(=O)O)C(=O)O)cc3)cnc2n1 (stereo not given)', 'active'),
  ('CCOc1ccccc1NC(=O)C(=O)c1c(O)c2ccc(O)cc2oc1=O', 'inactive'),
  ('COc1ccc(/C(Br)=C2\OC(=O)c3ccccc32)cc1', 'inactive'),
  ('CC(=O)OC1CC[C@@]2(C)C(C1)CC(OC(C)=O)[C@@H]1C2CC(OC(C)=O)[C@]2(C)C(C(C)CC=C(c3ccc(Cl)cc3)c3ccc(Cl)cc3)CCC12 (stereo not given in full)', 'inactive'),
  ('C#C[C@]1(O)CCC2C3CCc4cc(Oc5nc(F)nc(-c6c7cc8ccccc8cc7c7n6CCS7)n5)ccc4C3CCC21C (stereo not given in full)', 'inactive');

----------
// HCT-15 GI50 records
*1 amine or outer side, *2 acyl side, *3 side chain or, on linkers, in order; H or OH if unused. Where a SMILES comes first, the peptide text is derived from it. [ ]: non-standard residue; d: D form. The star is where a group is joined. ξ: configuration not given here. NMeY = CN[C@@H](Cc1ccc(O)cc1)C(=O)O; Ethylenediamine = C(CN[*:2])N[*:1]; ξNMeL = CNC(CC(C)C)C(=O)O; Cbz = O=C(OCc1ccccc1)*; Lac = C[C@H](O)C(=O)O; ξA = CC(N)C(=O)O
measuredQuantity: GI50

INSERT INTO results (compound, systemname, measuredquantity, recordedmeasurement) VALUES
  ('COc1ccc(-c2nc(-c3ccc(OC)cc3)n(-c3ccccc3)n2)cc1', 'HCT-15', 'GI50', '> 100 µM'),
  ('C=CCOC(=O)C[C@H](NC(=O)[C@H](Cc1ccc(O)cc1)NCC(F)(F)F)C(=O)OCC=C', 'HCT-15', 'GI50', '> 100 µM'),
  ('CCCCCCCCCCCCCCCCCC(=O)OCC(CN(C)CCN(C)C)OC(=O)CCCCCCCCCCCCCCCCC (configuration not stated)', 'HCT-15', 'GI50', '> 100 µM'),
  ('N#CC12CNCC1CN=N2 (configuration not stated)', 'HCT-15', 'GI50', '> 100 µM'),
  ('CC(=O)N1c2ccccc2N(C(C)=O)C1c1ccc(C2N(C(C)=O)c3ccccc3N2C(C)=O)[nH]1', 'HCT-15', 'GI50', '> 100 µM'),
  ('O=C(/C=C/c1ccco1)CC(=O)/C=C/c1ccco1', 'HCT-15', 'GI50', '12.5 µM'),
  ('CC1OC2OC3C(OCC(O)C3O)OC(=O)[C@]34CCC(C)(C)CC3C3=CCC5[C@@]6(C)C[C@H](O)[C@H](OC7OC(CO)C(O)C(O)C7OC7OC(COC(=O)CC(C)(O)CC(=O)OC1C(O)C2O)C(O)C(O)C7O)[C@@](C)(CO)C6CC[C@@]5(C)[C@]3(C)CC4 (some centres not stated)', 'HCT-15', 'GI50', '1.53 µM'),
  ('CCO/C([O-])=C(\C(=O)c1ccccc1)[n+]1c(C)n(C)c2ccccc21', 'HCT-15', 'GI50', '> 100 µM'),
  ('COc1ccc(C[C@@H](C(=O)NCCNC(=O)C(CC(C)C)N(C)C(=O)[C@@H]2CCCN2C(=O)[C@H](C)O)N(C)C(=O)[C@@H]2CCCN2C(=O)[C@H](CC(C)C)NC(=O)C(C)NC(=O)OCc2ccccc2)cc1 (some centres not stated) (Cbz-[ξA]LP[NMeY](Me)-{Ethylenediamine-ξNMeL-Pro-Lac})', 'HCT-15', 'GI50', '82 µM'),
  ('CC(=O)OC1CCC2(C)C(CCC3C2CCC2(C)C(c4ccc(=O)oc4)C(OC(C)=O)CC32O)C1 (configuration not stated)', 'HCT-15', 'GI50', '0.0136 µM'),
  ('COc1ccc(NS(=O)(=O)c2ccc3ncn(NS(=O)(=O)c4ccc(I)cc4)c(=O)c3c2)cc1', 'HCT-15', 'GI50', '> 100 µM'),
  ('CN1C(=O)N(C)C2(CCN(CCCCCCF)CC2)C1=O', 'HCT-15', 'GI50', '> 100 µM');

Recorded values, source ChEMBL document CHEMBL1201862.
